Source listed as patent US9493468B2.

System: Scedosporium prolificans
Test Method Notes: Antifungal activity in vitro, resazurin growth inhibition: Scedosporium prolificans (IHEM21157)
Type: cell-based
Item-by-item account of Inf. I: Scedosporium prolificans IHEM21157, pIC50

Clc1ccc2c(c1)-n1cccc1C(c1ccncc1)=NC2 [Compound 203] = <4
Clc1cccc2c1CN=C(c1ccncc1)c1cccn1-2 [Compound 198] = <4
Cl.Clc1cccc2c1CNC(c1cc3ccccc3o1)c1cccn1-2 (racemic) [Compound 30] = <4.19
Clc1ccc2c(c1)-n1cccc1C(c1ccc3nc[nH]c3c1)=NC2 [Compound 204] = <4

Look at this molecule and give its reported Inf. I: Scedosporium prolificans IHEM21157, pIC50. CC(F)(F)c1ccc(C2=NCc3c(Cl)cc(Cl)cc3-n3cccc32)cn1 [Compound 84]
<4.19

====

Test system: Sporothrix schenkii
Test Method Notes: Antifungal activity in vitro, resazurin growth inhibition: Sporothrix schenkii (B62482)
Format: cell-based
Property Measured: Inf. A: Sporothrix schenkii B62482, pIC50

FC(F)(F)c1ccc(C2=NCc3c(Cl)cc(Cl)cc3-n3cccc32)cn1 = 5.10
Fc1cccc2c1CN=C(c1cnc(Cl)c(Cl)c1)c1cccn1-2 = 5.42
Clc1cccc2c1CN=C(c1cc3ccccc3o1)c1cccn1-2 = 5.70
Cc1cccc2c1-n1cccc1C(c1cc3ccccc3o1)=NC2 = 5.74

====

Test system: Candida parapsilosis
Test Method Notes: Antifungal activity in vitro, resazurin growth inhibition: Candida parapsilosis (B66126)
Format: cell-based
Condition Details: Lodderomyces parapsilosis, read-out: Inf. D: Candida parapsilosis B66126, pIC50 (converted)
Property Measured: IC50

Look at this compound and give its reported IC50. `Clc1cccc2c1-n1cccc1C(c1cc3ccccc3o1)=NC2`
> 64.6 µM

Look at this compound and give its reported IC50. `FC(F)(F)c1cc(C2=NCc3c(Cl)cccc3-n3cccc32)ccn1`
> 64.6 µM

Look at this compound and give its reported IC50. `Cc1cccc2c1CN=C(c1cc3ccccc3s1)c1cccn1-2`
> 64.6 µM

====

System: Scedosporium apiospermum
Test Method Notes: Antifungal activity in vitro, resazurin growth inhibition: Scedosporium apiospermum (IHEM3817)
Type: cell-based
Experimental: The standard susceptibility screen is performed in 96-well plates (U-bottom, Greiner Bio-One). Serial dilutions (2-fold or 4-fold) of 20 mM compound stock solutions are made in 100% DMSO, followed by an intermediate dilution step in water. These serial dilutions (10 μl) are then spotted onto test-plates that can be stored in the dark at 4° C. for a maximum period of 2 weeks. An adequate broad dose-range is included with 64 μM as the highest in-test concentration. […]
Property Measured: Inf. H: Scedosporium apiospermum IHEM3817, pIC50

Before answering, review these 2 worked examples.
CC(=O)c1ccc(C2=NCc3c(Cl)cccc3-n3cccc32)cn1 = <4.19
Fc1cccc2cc(C3=NCc4c(Cl)cc(Cl)cc4-n4cccc43)oc12 = <4.19

Look at this molecule and give its reported Inf. H: Scedosporium apiospermum IHEM3817, pIC50. `Clc1ccc2c(c1)-n1cccc1C(c1cc3ccccc3o1)=NC2`
<4.19

====

System: Trichophyton rubrum
Test Method Notes: Antifungal activity in vitro, resazurin growth inhibition: Trichophyton rubrum (B68183)
Format: cell-based
Property Measured: Inf. C: Trichophyton rubrum B68183, pIC50

Cc1ccc2cc(C3=NCc4c(Cl)cccc4-n4cccc43)ccc2n1 [Compound 112] = 6.02
Cl.Clc1cccc2c1CN=C(c1nc3ccccc3s1)c1cccn1-2 [Compound 181] = 5.94
Cl.Clc1cccc2c1CNC(c1cc3ccccc3s1)c1cccn1-2 (racemic) [Compound 53] = 6.10
Clc1cccc2c1CN=C(c1ccc3ccccc3n1)c1cccn1-2 [Compound 197] = 6.00
Cn1ccc2cc(C3=NCc4c(Cl)cc(Cl)cc4-n4cccc43)ccc21 [Compound 107] = 5.92

====

System: Trichophyton rubrum
Test Method Notes: Antifungal activity in vitro, resazurin growth inhibition: Trichophyton rubrum (B68183)
Format: cell-based
Property Measured: Inf. C: Trichophyton rubrum B68183, pIC50

Clc1ccc2oc(C3=NCc4c(Cl)cccc4-n4cccc43)cc2c1 [Compound 121] = 6.82
COc1cccc2cc(C3=NCc4c(Cl)cccc4-n4cccc43)oc12 [Compound 141] = 6.86
Fc1cc(F)c2oc(C3=NCc4c(Cl)cc(Cl)cc4-n4cccc43)cc2c1 [Compound 129] = 4.96

====

Test system: Trichophyton mentagrophytes
Test Method Notes: Antifungal activity in vitro, resazurin growth inhibition: Trichophyton mentagrophytes (B70554)
Format: cell-based
Property Measured: Inf. G: Trichophyton mentagrophytes B70554, pIC50

Before answering, review these 6 worked examples.
COc1cccc2cc(C3NCc4c(Cl)cc(Cl)cc4-n4cccc43)oc12.Cl (racemic) = <4.19
Cc1ccc2cc(C3NCc4c(Cl)cc(Cl)cc4-n4cccc43)oc2c1.Cl (racemic) = <4.19
Clc1cccc2c1CN=C(c1ccncc1)c1cccn1-2 = <4
Clc1cccc2c1CN=C(c1ccc3scc(Cl)c3c1)c1cccn1-2 = <4.19
COc1cccc2cc(C3=NCc4c(Cl)cc(Cl)cc4-n4cccc43)oc12 = <4.19
COc1ccc2oc(C3=NCc4ccc(Cl)cc4-n4cccc43)cc2c1 = <4.19

Look at this compound and give its reported Inf. G: Trichophyton mentagrophytes B70554, pIC50. Cc1nc2ccc(C3NCc4c(Cl)cccc4-n4cccc43)cc2o1.Cl (racemic)
<4.19

Look at this compound and give its reported Inf. G: Trichophyton mentagrophytes B70554, pIC50. `Cc1cccc2oc(C3=NCc4c(Cl)cccc4-n4cccc43)cc12`
<4.49

Look at this compound and give its reported Inf. G: Trichophyton mentagrophytes B70554, pIC50. `COc1cccc2cc(C3=NCc4cccc(Cl)c4-n4cccc43)oc12`
<4.19

Look at this compound and give its reported Inf. G: Trichophyton mentagrophytes B70554, pIC50. `Cc1cccc2oc(C3=NCc4ccc(Cl)cc4-n4cccc43)cc12`
<4.19

====

System: Sporothrix schenkii
Test Method Notes: Antifungal activity in vitro, resazurin growth inhibition: Sporothrix schenkii (B62482)
Type: cell-based
Protocol: The standard susceptibility screen is performed in 96-well plates (U-bottom, Greiner Bio-One). Serial dilutions (2-fold or 4-fold) of 20 mM compound stock solutions are made in 100% DMSO, followed by an intermediate dilution step in water. These serial dilutions (10 μl) are then spotted onto test-plates that can be stored in the dark at 4° C. for a maximum period of 2 weeks. An adequate broad dose-range is included with 64 μM as the highest in-test concentration. […]
Property Measured: Inf. A: Sporothrix schenkii B62482, pIC50

Before answering, review these 4 worked examples.
Cc1cccc2oc(C3=NCc4c(Cl)cccc4-n4cccc43)cc12 = <4.49
COc1ccc2oc(C3=NCc4c(Cl)cc(Cl)cc4-n4cccc43)cc2c1 = <4.19
Clc1ccc2c(c1)-n1cccc1C(c1ccc3nc[nH]c3c1)=NC2 = <4
Fc1cc(F)c2oc(C3=NCc4c(Cl)cccc4-n4cccc43)cc2c1 = <4.19

Recorded Inf. A: Sporothrix schenkii B62482, pIC50 for `Clc1ccc2c(c1)-n1cccc1C(c1ccc3scc(Cl)c3c1)=NC2` with Sporothrix schenkii, please?
<4.19
